test system: blackgrass; test: Test D preemergence; type: in vivo, Alopecurus myosuroides; conditions: 31 g ai/ha, scale 0 to 100
Excerpt: […]
quantity: Plant response rating: Blackgrass
A bare number is all that is needed in reply.

Worked cases, answers included:
mol_smiles=CCOc1nc(-c2ccccc2)nn1Cc1ccnc(C(F)(F)F)c1 quantity="Plant response rating: Blackgrass" value=30
mol_smiles=CCOc1nc(-c2ccc(C(F)(F)F)cc2)nn1Cc1ccnc(C(F)(F)F)c1 quantity="Plant response rating: Blackgrass" value=40
mol_smiles=CCOc1nc(-c2ccc(F)cc2)nn1Cc1ccnc(C(F)(F)F)c1 quantity="Plant response rating: Blackgrass" value=65

The record that follows has no Plant response rating: Blackgrass shown yet.
Data request, read-out Plant response rating: Blackgrass, for FC(F)(F)COc1nc(-c2ccc(Cl)cc2)nn1Cc1ccnc(C(F)(F)F)c1
40

Entry source: patent US10681909B2
